As shown below, each of these molecules has a reported pKi value.
# Target Or System: MT1 (Homo sapiens, UniProt P48039)
# Sequence (P48039 whole entry): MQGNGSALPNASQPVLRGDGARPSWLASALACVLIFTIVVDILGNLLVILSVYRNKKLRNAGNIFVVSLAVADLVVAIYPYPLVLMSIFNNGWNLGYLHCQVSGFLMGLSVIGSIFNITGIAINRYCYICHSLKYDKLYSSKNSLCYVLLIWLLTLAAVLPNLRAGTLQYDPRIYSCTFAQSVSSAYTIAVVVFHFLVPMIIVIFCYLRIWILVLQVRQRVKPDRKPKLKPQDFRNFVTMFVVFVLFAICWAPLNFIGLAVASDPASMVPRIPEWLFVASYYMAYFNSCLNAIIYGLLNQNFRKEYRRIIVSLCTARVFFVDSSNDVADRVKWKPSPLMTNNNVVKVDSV
# Procedure Details: 2-[125I]-iodomelatonin competition binding assay, membranes of HEK293 cells
# Measurement Setup: pKi ± S.E.M., 2-[125I]MLT binding assay, hMT1 stably expressed in HEK293 cells
Interpret pKi as the negative base-10 log of the concentration measured in mol/L.

Molecule: CC/C(=C(\c1ccccc1)c1ccc(OCCN(C)C(=O)CCCCCOc2ccc3[nH]cc(CCNC(C)=O)c3c2)cc1)c1ccccc1 [compound 19b]
pKi: 5.53

Molecule: CC/C(=C(\c1ccccc1)c1ccc(OCCN(C)CCOCCOCCOc2ccc3[nH]cc(CCNC(C)=O)c3c2)cc1)c1ccccc1
pKi: 8.21

Molecule: CC/C(=C(\c1ccccc1)c1ccc(OCCN(C)C(=O)CCCCCCOc2ccc3[nH]cc(CCNC(C)=O)c3c2)cc1)c1ccccc1 [19c]
pKi: 8.58

From here, focus on the item given below.
Quick check: pKi of CC/C(=C(\c1ccccc1)c1ccc(OCCN(C)CCCCCC(=O)NCCCOc2ccc3[nH]cc(CCNC(C)=O)c3c2)cc1)c1ccccc1 [16b] ?
7.70

---

# Target Or System: MT1 (Homo sapiens)
# Procedure Details: cAMP accumulation assay, forskolin-stimulated HEK293 cells
# Format: cell-based
# Measurement Setup: EC50, cAMP accumulation, hMT1 HEK293 cells; 1 μM forskolin
As shown below, each of these molecules has a reported EC50 value.
Number only, in nM; omit the unit.

Study these solved cases before continuing.
Molecule: CC/C(=C(\c1ccccc1)c1ccc(OCCN(C)CCOCCOCCOc2ccc3[nH]cc(CCNC(C)=O)c3c2)cc1)c1ccccc1
Target Or System: MT1 (Homo sapiens)
EC50 / nM: 74.3
--
Molecule: CC/C(=C(\c1ccccc1)c1ccc(OCCN(C)C(=O)CCCCCOc2ccc3[nH]cc(CCNC(C)=O)c3c2)cc1)c1ccccc1 [compound 19b]
Target Or System: MT1 (Homo sapiens)
EC50 / nM: 389

Quick check: EC50 of CC/C(=C(\c1ccccc1)c1ccc(OCCN(C)CCCCCC(=O)NCCCOc2ccc3[nH]cc(CCNC(C)=O)c3c2)cc1)c1ccccc1 [16b] ?
987

---

# Target Or System: UniProt P48039
# Procedure Details: ERK activation
# Format: cell-based
# Measurement Setup: pEC50 ± S.E.M., ERK activation, hMT1 cells, 5 min stimulation
Property: EC50 (nM)
Number only, in nM; omit the unit.

Compound: CC/C(=C(\c1ccccc1)c1ccc(OCCN(C)C(=O)CCCCCOc2ccc3[nH]cc(CCNC(C)=O)c3c2)cc1)c1ccccc1 [compound 19b]
Unit Abbreviation: nM
EC50: 120
//
Compound: CC/C(=C(\c1ccccc1)c1ccc(OCCN(C)CCCCCC(=O)NCCCOc2ccc3[nH]cc(CCNC(C)=O)c3c2)cc1)c1ccccc1 [16b]
Unit Abbreviation: nM
EC50: 13.8
//
Compound: CC/C(=C(\c1ccccc1)c1ccc(OCCN(C)CCOCCOCCOc2ccc3[nH]cc(CCNC(C)=O)c3c2)cc1)c1ccccc1 [compound 21]
Unit Abbreviation: nM
EC50: 28.2

Quick check: EC50 of CC/C(=C(\c1ccccc1)c1ccc(OCCN(C)C(=O)CCCCCCOc2ccc3[nH]cc(CCNC(C)=O)c3c2)cc1)c1ccccc1 [19c] ?
61.7

---

# Target Or System: MT1 (Homo sapiens)
# Procedure Details: β-arrestin2 recruitment BRET assay in HEK293 cells
# Assay type: cell-based
# Measurement Setup: pEC50 ± S.E.M., ß-arrestin recruitment, hMT1 HEK293 cells, BRET
Decision: EC50 beneath 1000 nM gives Fulfilled; EC50 meeting or exceeding 1000 nM gives Not fulfilled.

Past entries and their recorded results:
Compound: CC/C(=C(\c1ccccc1)c1ccc(OCCN(C)CCOCCOCCOc2ccc3[nH]cc(CCNC(C)=O)c3c2)cc1)c1ccccc1
Target Or System: MT1 (Homo sapiens)
Discrete Label: Fulfilled

Compound: CC/C(=C(\c1ccccc1)c1ccc(OCCN(C)CCCCCC(=O)NCCCOc2ccc3[nH]cc(CCNC(C)=O)c3c2)cc1)c1ccccc1 [16b]
Target Or System: MT1 (Homo sapiens)
Discrete Label: Fulfilled

is_below(EC50, 1000 nM) for CC/C(=C(\c1ccccc1)c1ccc(OCCN(C)C(=O)CCCCCOc2ccc3[nH]cc(CCNC(C)=O)c3c2)cc1)c1ccccc1 [compound 19b] ?
Not fulfilled

is_below(EC50, 1000 nM) for CC/C(=C(\c1ccccc1)c1ccc(OCCN(C)C(=O)CCCCCCOc2ccc3[nH]cc(CCNC(C)=O)c3c2)cc1)c1ccccc1 [19c] ?
Not fulfilled

---

As shown below, each of these compounds has a reported EC50 value.
# Target Or System: MT1 (Homo sapiens)
# Procedure Details: ERK activation
# Format: cell-based
# Measurement Setup: EC50, ERK activation, hMT1 cells, 5 min stimulation
Could you kindly put the unit after your number?

Study these solved cases before continuing.
Compound: CC/C(=C(\c1ccccc1)c1ccc(OCCN(C)C(=O)CCCCCOc2ccc3[nH]cc(CCNC(C)=O)c3c2)cc1)c1ccccc1 [compound 19b]
EC50: 178 nM
--
Compound: CC/C(=C(\c1ccccc1)c1ccc(OCCN(C)C(=O)CCCCCCOc2ccc3[nH]cc(CCNC(C)=O)c3c2)cc1)c1ccccc1 [19c]
EC50: 161 nM
--
Compound: CC/C(=C(\c1ccccc1)c1ccc(OCCN(C)CCCCCC(=O)NCCCOc2ccc3[nH]cc(CCNC(C)=O)c3c2)cc1)c1ccccc1 [16b]
EC50: 16 nM

What reported EC50 corresponds to CC/C(=C(\c1ccccc1)c1ccc(OCCN(C)CCOCCOCCOc2ccc3[nH]cc(CCNC(C)=O)c3c2)cc1)c1ccccc1 on MT1 (Homo sapiens)?
36 nM
